- TESTED SYSTEM: Jack bean urease (Canavalia ensiformis, UniProt P07374)
- Sequence (P07374 whole entry, looked up): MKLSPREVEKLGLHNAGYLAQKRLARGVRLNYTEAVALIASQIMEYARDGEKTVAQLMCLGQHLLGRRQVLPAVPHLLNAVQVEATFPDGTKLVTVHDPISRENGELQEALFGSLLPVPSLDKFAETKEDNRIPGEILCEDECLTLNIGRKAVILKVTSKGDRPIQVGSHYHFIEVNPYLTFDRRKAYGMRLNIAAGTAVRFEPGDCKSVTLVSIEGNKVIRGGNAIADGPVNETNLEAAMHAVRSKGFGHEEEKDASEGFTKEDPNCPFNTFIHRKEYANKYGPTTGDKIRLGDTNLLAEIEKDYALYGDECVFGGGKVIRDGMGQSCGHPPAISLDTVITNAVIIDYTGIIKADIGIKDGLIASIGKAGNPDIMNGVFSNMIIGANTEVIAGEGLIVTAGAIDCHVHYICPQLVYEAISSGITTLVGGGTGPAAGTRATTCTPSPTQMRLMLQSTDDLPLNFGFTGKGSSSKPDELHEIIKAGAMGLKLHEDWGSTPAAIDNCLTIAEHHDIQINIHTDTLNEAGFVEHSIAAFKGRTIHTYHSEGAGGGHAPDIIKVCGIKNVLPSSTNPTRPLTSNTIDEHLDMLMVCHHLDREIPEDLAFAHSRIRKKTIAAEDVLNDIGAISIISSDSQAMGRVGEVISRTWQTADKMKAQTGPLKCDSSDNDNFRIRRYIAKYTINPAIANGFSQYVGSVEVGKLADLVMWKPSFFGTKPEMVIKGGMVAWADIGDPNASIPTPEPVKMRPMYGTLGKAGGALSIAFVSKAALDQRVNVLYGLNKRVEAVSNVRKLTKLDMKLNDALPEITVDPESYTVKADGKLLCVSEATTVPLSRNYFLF
RECORDED ENDPOINT: IC50 (µM)
Write it as a number; the unit µM goes unstated.

Write down measured IC50 (Jack bean urease (Canavalia ensiformis, UniProt P07374)) for this compound. CC(=O)NO [acetohydroxamic acid]
185
